Origin of the recorded values: patent US20060008846A1

# assay-system: T1, ALK4 (activin type I receptor) (UniProt P36896)
# T1 sequence (looked up): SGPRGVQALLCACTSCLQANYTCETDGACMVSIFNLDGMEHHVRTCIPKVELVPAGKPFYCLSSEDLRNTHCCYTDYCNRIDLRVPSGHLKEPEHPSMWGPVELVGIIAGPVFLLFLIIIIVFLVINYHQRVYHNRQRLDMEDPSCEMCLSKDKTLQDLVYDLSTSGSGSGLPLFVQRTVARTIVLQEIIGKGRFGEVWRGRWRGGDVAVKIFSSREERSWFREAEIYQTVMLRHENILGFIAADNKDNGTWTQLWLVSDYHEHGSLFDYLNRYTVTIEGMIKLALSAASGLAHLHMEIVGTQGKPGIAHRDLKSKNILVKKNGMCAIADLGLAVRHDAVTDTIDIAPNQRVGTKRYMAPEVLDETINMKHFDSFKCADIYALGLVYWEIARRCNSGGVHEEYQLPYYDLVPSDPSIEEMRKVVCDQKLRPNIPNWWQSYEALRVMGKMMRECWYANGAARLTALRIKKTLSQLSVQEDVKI
# protocol-description: cell-based or functional assay
parameter-measured: % Activin Activity (A3-luciferase assay in 293T cells) (% of wild type activin-A)

binder: activin-A H65A/M68A (ligand, human, UniProt P08476 311-426, looked up) GLECDGKVNICCKKQFFVSFKDIGWNDWIIAPSGYHANYCEGECPSHIAGTSGSSLSFHSTVINAYRARGHSPFANLKSCCVPTKLRPMSMLYYDDGQNIIKKDIQNMIVEECGCS
value: 82
//
binder: activin-A V62P (ligand, human, UniProt P08476 311-426, looked up) GLECDGKVNICCKKQFFVSFKDIGWNDWIIAPSGYHANYCEGECPSHIAGTSGSSLSFHSTPINHYRMRGHSPFANLKSCCVPTKLRPMSMLYYDDGQNIIKKDIQNMIVEECGCS
value: 64
//
binder: A/C-2.4 chimeric activin A/activin C protein (ligand, human, UniProt P08476 311-426, looked up) GLECDGKVNICCKKQFFVSFKDIGWNDWIIAPSGYHANYCEGECPSHIAGTSGSSLSFHSTVINHYRANTAAPFANLKSCCVPTKLRPMSMLYYDDGQNIIKKDIQNMIVEECGCS
value: 79

Then this binder:
Using the record for activin-A S55A/L56A (ligand, human, UniProt P08476 311-426, looked up) GLECDGKVNICCKKQFFVSFKDIGWNDWIIAPSGYHANYCEGECPSHIAGTSGSAASFHSTVINHYRMRGHSPFANLKSCCVPTKLRPMSMLYYDDGQNIIKKDIQNMIVEECGCS , state its measured % Activin Activity (A3-luciferase assay in 293T cells) (% of wild type activin-A).
101
